This collection of values is drawn from ChEMBL document CHEMBL1124104.

# measured on: Neutrophil elastase (Homo sapiens)
# experiment notes: Inhibitory activity against [14C]-Elastin hydrolysis at 2 uM concentration and 2 hr.
parameter measured: inhibition (%)

The following molecules have reported results that may help.
>  <smiles text>
CC(C)(C)C(=O)Oc1ccc(S(=O)(=O)c2ccc(OC(=O)C(C)(C)C)cc2)cc1

>  <measured on>
Neutrophil elastase (Homo sapiens)

>  <parameter measured>
inhibition

>  <result>
29

$$$$
>  <smiles text>
CC(C)(C)C(=O)Oc1ccc(C(=O)c2ccc(OC(=O)C(C)(C)C)cc2OC(=O)C(C)(C)C)c(OC(=O)C(C)(C)C)c1

>  <measured on>
Neutrophil elastase (Homo sapiens)

>  <parameter measured>
inhibition

>  <result>
85

$$$$

[I] CC(C)(C)C(=O)Oc1ccc(C(=O)c2ccc(OC(=O)C(C)(C)C)cc2OC(=O)C(C)(C)C)cc1
[II] CCCCCCCCCCCCCCCCCC(=O)OCc1cc(=O)c(OC(=O)C(C)(C)C)co1
# input Hi there, can you help? I need to know whether I or II has lower measured inhibition. Indicate which entry you chose by stating its label.
# output II
(II: 21%, I: 81%)

====

# measured on: Neutrophil elastase (Homo sapiens)
# Sequence (P08246 whole entry): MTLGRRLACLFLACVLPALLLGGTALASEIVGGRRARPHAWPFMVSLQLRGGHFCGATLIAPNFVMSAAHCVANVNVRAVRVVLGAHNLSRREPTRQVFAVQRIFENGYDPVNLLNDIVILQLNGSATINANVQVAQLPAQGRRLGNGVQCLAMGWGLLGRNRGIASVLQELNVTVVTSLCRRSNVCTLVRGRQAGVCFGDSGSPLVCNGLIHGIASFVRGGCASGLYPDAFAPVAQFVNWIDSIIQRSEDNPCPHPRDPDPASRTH
# experiment notes: Binding affinity towards human leukocyte elastase at 10e-8 M
parameter measured: Ki (nM)

>  <smiles text>
CC(C)(C)C(=O)Oc1ccc(C(=O)c2ccc(OC(=O)C(C)(C)C)cc2)cc1

>  <Ki / nM>
71

$$$$
>  <smiles text>
CC(C)(C)C(=O)Oc1ccc(C(=O)c2ccc(OC(=O)C(C)(C)C)cc2OC(=O)C(C)(C)C)c(OC(=O)C(C)(C)C)c1

>  <Ki / nM>
68

$$$$

====

# measured on: Neutrophil elastase (Homo sapiens, UniProt P08246)
# experiment notes: Inhibitory activity against human leukocyte elastase at 10e-6 M
parameter measured: IC50 (nM)

>  <smiles text>
CC(C)(C)C(=O)Oc1ccc(C(O)c2ccc(OC(=O)C(C)(C)C)cc2)cc1

>  <unit name>
nM

>  <result>
1500

$$$$

[I] O=C(c1ccccc1)c1ccc(OC(=O)C2CC2)cc1
[II] CC(C)(C)C(=O)Oc1ccc(C(=O)c2ccc(O)cc2)cc1
[III] CCC(=O)Oc1ccc(C(=O)c2ccccc2)cc1
# input Could you please sort these 3 entries by IC50 from high to low? Form entry: labels listed in requested order.
# output III, II, I

====

# measured on: Neutrophil elastase (Homo sapiens) (UniProt P08246)
# experiment notes: Inhibitory activity against [14C]-Elastin hydrolysis at 3 uM concentration and 3h.
parameter measured: inhibition (%)

>  <smiles text>
CC(C)(C)C(=O)Oc1ccc(C(=O)c2ccccc2)c(OC(=O)C(C)(C)C)c1

>  <inhibition / %>
10

$$$$
>  <smiles text>
CCCCCCCC/C=C/CCCCCCCCCCCC(=O)OCc1cc(=O)c(OC(=O)C(C)(C)C)co1

>  <inhibition / %>
32

$$$$
>  <smiles text>
CC(C)(C)C(=O)Oc1ccc(S(=O)(=O)c2ccc(OC(=O)C(C)(C)C)cc2)cc1

>  <inhibition / %>
29

$$$$

[a] CCCCCCCCCCCCCCCCCC(=O)OCc1cc(=O)c(OC(=O)C(C)(C)C)co1
[b] CC(C)(C)C(=O)Oc1cc(C(=O)OCc2cc(=O)c(OC(=O)C(C)(C)C)co2)cc(OC(=O)C(C)(C)C)c1OC(=O)C(C)(C)C
# input Please tell me which of the two, a or b , has the higher reported inhibition value. Indicate which entry you chose by stating its label.
# output b
(b: 31%, a: 13%)

====

# measured on: Neutrophil elastase (Homo sapiens)
# experiment notes: Inhibitory activity against [14C]-Elastin hydrolysis at 2 uM concentration and 3h.
parameter measured: inhibition (%)

>  <smiles text>
CC(C)(C)C(=O)Oc1ccc(C(=O)OCc2cc(=O)c(OC(=O)C(C)(C)C)co2)c(OC(=O)C(C)(C)C)c1

>  <parameter measured>
inhibition

>  <result>
1

$$$$
>  <smiles text>
CC(C)(C)C(=O)Oc1ccc(C(=O)c2ccccc2)c(OC(=O)C(C)(C)C)c1

>  <parameter measured>
inhibition

>  <result>
9

$$$$

[a] CC(C)(C)C(=O)Oc1ccc(C(=O)c2ccc(OC(=O)C(C)(C)C)cc2OC(=O)C(C)(C)C)cc1
[b] CCCCCCCCCCCCCCCCCC(=O)OCc1cc(=O)c(OC(=O)C(C)(C)C)co1
# input Please tell me which of the two, a or b , has the higher reported inhibition value. Indicate which entry you chose by stating its label.
# output a
(a: 76%, b: 9%)

[1] CC(C)(C)C(=O)Oc1ccc(S(=O)(=O)c2ccc(OC(=O)C(C)(C)C)cc2)cc1
[2] CC(C)(C)C(=O)Oc1cc(C(=O)OCc2cc(=O)c(OC(=O)C(C)(C)C)co2)cc(OC(=O)C(C)(C)C)c1OC(=O)C(C)(C)C
# input Hi there, can you help? I need to know whether 1 or 2 has lower measured inhibition. Indicate which entry you chose by stating its label.
# output 2

[a] CC(C)(C)C(=O)Oc1ccc(C(=O)c2ccc(OC(=O)C(C)(C)C)cc2OC(=O)C(C)(C)C)c(OC(=O)C(C)(C)C)c1
[b] CCCCCCCC/C=C/CCCCCCCCCCCC(=O)OCc1cc(=O)c(OC(=O)C(C)(C)C)co1
# input Please tell me which of the two, a or b , has the higher reported inhibition value. Indicate which entry you chose by stating its label.
# output a
(a: 82%, b: 13%)

====

# measured on: Neutrophil elastase (Homo sapiens) (UniProt P08246)
# experiment notes: Inhibitory activity against [14C]elastin hydrolysis at 1 uM concentration and 2 hr.
parameter measured: inhibition (%)

The following compounds have reported results that may help.
>  <smiles text>
CC(C)(C)C(=O)Oc1ccc(C(=O)c2ccccc2)c(OC(=O)C(C)(C)C)c1

>  <measured on>
Neutrophil elastase (Homo sapiens) (UniProt P08246)

>  <parameter measured>
inhibition

>  <unit name>
%

>  <result>
10

$$$$
>  <smiles text>
CC(C)(C)C(=O)Oc1ccc(C(=O)c2ccc(OC(=O)C(C)(C)C)cc2OC(=O)C(C)(C)C)cc1

>  <measured on>
Neutrophil elastase (Homo sapiens) (UniProt P08246)

>  <parameter measured>
inhibition

>  <unit name>
%

>  <result>
63

$$$$
>  <smiles text>
CC(C)(C)C(=O)Oc1cc(C(=O)OCc2cc(=O)c(OC(=O)C(C)(C)C)co2)cc(OC(=O)C(C)(C)C)c1OC(=O)C(C)(C)C

>  <measured on>
Neutrophil elastase (Homo sapiens) (UniProt P08246)

>  <parameter measured>
inhibition

>  <unit name>
%

>  <result>
15

$$$$

[P] CC(C)(C)C(=O)Oc1ccc(S(=O)(=O)c2ccc(OC(=O)C(C)(C)C)cc2)cc1
[Q] CC(C)(C)C(=O)Oc1ccc(C(=O)OCc2cc(=O)c(OC(=O)C(C)(C)C)co2)c(OC(=O)C(C)(C)C)c1
[R] CC(C)(C)C(=O)Oc1ccc(C(=O)c2ccc(OC(=O)C(C)(C)C)cc2OC(=O)C(C)(C)C)c(OC(=O)C(C)(C)C)c1
# input Could you please sort these 3 entries by inhibition from high to low? Form entry: labels listed in requested order.
# output R, P, Q
(R: 72%, P: 14%, Q: 5%)

====

# measured on: Neutrophil elastase (Homo sapiens) (UniProt P08246)
# Sequence (whole entry): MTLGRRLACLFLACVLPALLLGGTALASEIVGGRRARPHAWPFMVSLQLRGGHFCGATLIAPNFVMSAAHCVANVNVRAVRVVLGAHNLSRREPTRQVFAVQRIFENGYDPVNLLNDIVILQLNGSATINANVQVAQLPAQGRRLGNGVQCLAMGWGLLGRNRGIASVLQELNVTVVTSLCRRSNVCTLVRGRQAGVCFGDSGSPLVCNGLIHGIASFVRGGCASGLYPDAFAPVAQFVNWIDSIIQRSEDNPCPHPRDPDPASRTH
# experiment notes: Inhibitory activity against [14C]elastin hydrolysis at 2 uM concentration and 1h.
parameter measured: inhibition (%)

The following compounds have reported results that may help.
>  <smiles text>
CC(C)(C)C(=O)Oc1cc(C(=O)OCc2cc(=O)c(OC(=O)C(C)(C)C)co2)cc(OC(=O)C(C)(C)C)c1OC(=O)C(C)(C)C

>  <result>
58

$$$$
>  <smiles text>
CC(C)(C)C(=O)Oc1ccc(S(=O)(=O)c2ccc(OC(=O)C(C)(C)C)cc2)cc1

>  <result>
39

$$$$
>  <smiles text>
CC(C)(C)C(=O)Oc1ccc(C(=O)OCc2cc(=O)c(OC(=O)C(C)(C)C)co2)c(OC(=O)C(C)(C)C)c1

>  <result>
36

$$$$
>  <smiles text>
CCCCCCCCCCCCCCCCCC(=O)OCc1cc(=O)c(OC(=O)C(C)(C)C)co1

>  <result>
57

$$$$
>  <smiles text>
CC(C)(C)C(=O)Oc1ccc(C(=O)c2ccc(OC(=O)C(C)(C)C)cc2OC(=O)C(C)(C)C)c(OC(=O)C(C)(C)C)c1

>  <result>
81

$$$$
>  <smiles text>
CCCCCCCC/C=C/CCCCCCCCCCCC(=O)OCc1cc(=O)c(OC(=O)C(C)(C)C)co1

>  <result>
61

$$$$

[A] CC(C)(C)C(=O)Oc1ccc(C(=O)c2ccc(OC(=O)C(C)(C)C)cc2OC(=O)C(C)(C)C)cc1
[B] CC(C)(C)C(=O)Oc1ccc(C(=O)c2ccccc2)c(OC(=O)C(C)(C)C)c1
# input Hi there, can you help? I need to know whether A or B has lower measured inhibition. Indicate which entry you chose by stating its label.
# output B
(B: 36%, A: 81%)
